The origin of these recorded values is patent US20200002699.

molecular target: alpha-thrombin (Homo sapiens, UniProt P00734;P00734 P00734:328-363,P00734:364-622); experiment: filter; ±0.2; Fbmax 92.3; 20 mM Tris pH 7.5, 150 mM NaCl, 2 mM MgSO4, 50 ug/mL BSA, 22 C
reported_endpoint: pKd
Note: pKd values are expressed as the negative base-10 logarithm of concentration in M.

Problem: # return recorded pKd for entry Clone 9 (ssRNA) RNA: GGAGAGGGAAAGAGAACGAGCGGGUGUUCACAAGAUAGAGUAGACUAAGUGACACAAAGCCCGG
Result: 8.85
